ASSAYED SYSTEM: Cyclin-dependent kinase 2 (Homo sapiens, UniProt P24941)
PROPERTY: IC50 (nM)

{"columns": ["COMPOUND", "NUMERIC RESULT"],
 "data": [
  ["O=C1Nc2ccccc2/C1=C1/Nc2ccccc2C1=O [INDIRUBIN]", 3]
]}

---

ASSAYED SYSTEM: Cyclin-dependent kinase 7 (Homo sapiens)
Sequence (P50613 whole entry): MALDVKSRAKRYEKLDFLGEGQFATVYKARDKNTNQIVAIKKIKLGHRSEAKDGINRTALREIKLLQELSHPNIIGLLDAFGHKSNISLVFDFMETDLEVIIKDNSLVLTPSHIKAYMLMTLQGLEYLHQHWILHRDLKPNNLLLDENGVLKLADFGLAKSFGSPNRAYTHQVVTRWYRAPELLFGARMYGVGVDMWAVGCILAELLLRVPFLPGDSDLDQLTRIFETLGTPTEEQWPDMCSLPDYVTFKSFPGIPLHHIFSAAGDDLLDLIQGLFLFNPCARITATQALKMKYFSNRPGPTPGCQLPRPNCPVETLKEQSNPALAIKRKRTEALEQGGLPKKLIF
TEST SUMMARY: Inhibition of CDK7 (unknown origin)

{"columns": ["SMILES REPR", "IC50 [µM]"],
 "data": [
  ["CN(C)C/C=C/C(=O)Nc1cccc(C(=O)Nc2cccc(Nc3ncc(Cl)c(-c4c[nH]c5ccccc45)n3)c2)c1", 0.019]
]}
